# Test system: h2E2 anti-cocaine mAb
# method.description: Isothermal titration calorimetry
# Format: binding
# experimental.context: ITC, PBS, 20°C; mean ± SD of 4 experiments
value.kind: K (association) (M⁻¹)
Lab book: enter the figure in M⁻¹, no units written.

• COC(=O)[C@H]1[C@@H](OC(=O)c2ccccc2)C[C@@H]2CC[C@H]1N2C [Cocaine, cocaine] = 1.33e+08
• CCOC(=O)[C@@H]1C2CCC(C[C@@H]1OC(=O)c1ccccc1)N2C (some centres unmarked) [Cocaethylene, cocaethylene] = 2.31e+08
• COC(=O)[C@@H]1[C@H]2CC[C@@H](C[C@@H]1O)N2C [Ecgonine Methyl Ester, ecgonine methyl ester] = 61375
• CN1[C@H]2CC[C@@H]1[C@@H](C(=O)O)[C@@H](OC(=O)c1ccccc1)C2 [Benzoylecgonine, benzoylecgonine] = 1.88e+07

Now for the compound whose K (association) we want.
Q: Return K (association) (reported value) for this compound: COC(=O)[C@H]1[C@@H](OC(=O)c2ccccc2)C[C@@H]2CC[C@H]1N2 [Norcocaine, norcocaine]
A: 704500

---

Below, each entry is listed with its recorded ΔS.
# Tested on: h2E2 anti-cocaine mAb
# method.description: Isothermal titration calorimetry
# Format: binding
# experimental.context: ITC, PBS, 20°C; mean ± SD of 4 experiments
Express the result in cal/mol/deg but write the number alone.

* CN1[C@H]2CC[C@@H]1[C@@H](C(=O)O)[C@@H](OC(=O)c1ccccc1)C2 [Benzoylecgonine, benzoylecgonine] | −19.4
* CCOC(=O)[C@@H]1C2CCC(C[C@@H]1OC(=O)c1ccccc1)N2C (some centres unmarked) [Cocaethylene, cocaethylene] | −9.67
* COC(=O)[C@H]1[C@@H](OC(=O)c2ccccc2)C[C@@H]2CC[C@H]1N2C [Cocaine, cocaine] | −15.4
* COC(=O)[C@H]1[C@@H](OC(=O)c2ccccc2)C[C@@H]2CC[C@H]1N2 [Norcocaine, norcocaine] | 16.3

Q: Hello, please tell me recorded ΔS for this one: COC(=O)[C@@H]1[C@H]2CC[C@@H](C[C@@H]1O)N2C [Ecgonine Methyl Ester, ecgonine methyl ester]
A: 13.80

---

Attribute: ΔH
# System: h2E2 anti-cocaine mAb
# method.description: Isothermal titration calorimetry
# Type: binding
# experimental.context: ITC, PBS, 20°C; mean ± SD of 4 experiments
Provide the reading as a plain figure in kcal/mol.

Recorded ΔH, per entry:
• CN1[C@H]2CC[C@@H]1[C@@H](C(=O)O)[C@@H](OC(=O)c1ccccc1)C2 [Benzoylecgonine, benzoylecgonine] = -15.44
• COC(=O)[C@H]1[C@@H](OC(=O)c2ccccc2)C[C@@H]2CC[C@H]1N2 [Norcocaine, norcocaine] = -3.064
• COC(=O)[C@@H]1[C@H]2CC[C@@H](C[C@@H]1O)N2C [Ecgonine Methyl Ester, ecgonine methyl ester] = -2.336
• CCOC(=O)[C@@H]1C2CCC(C[C@@H]1OC(=O)c1ccccc1)N2C (some centres unmarked) [Cocaethylene, cocaethylene] = -13.988

Consider now this further molecule.
Q: Please give the documented ΔH of COC(=O)[C@H]1[C@@H](OC(=O)c2ccccc2)C[C@@H]2CC[C@H]1N2C [Cocaine, cocaine]
A: -15.41
